biological target: Activated CDC42 kinase 1 (Homo sapiens); settings: at 1 µM
Description: GSK_PKIS: TNK2 mean inhibition at 1 uM [Nanosyn]
Provide the recorded inhibition for the entries that follow.
Numbers only, in %.

Below, each entry is followed by its recorded inhibition result.
>  <compoundSmiles>
Cc1cccc(Nc2ncc(-c3ccccc3)o2)c1

>  <unitString>
%

>  <inhibition>
3.4

$$$$
>  <compoundSmiles>
c1ccc(-c2nc3n(c2-c2ccc4c(c2)OCO4)CCC3)nc1

>  <unitString>
%

>  <inhibition>
0.93

$$$$
>  <compoundSmiles>
CCn1c(-c2nonc2N)nc2c(C#CC(C)(C)O)nc(OC[C@H](N)c3ccccc3)cc21

>  <unitString>
%

>  <inhibition>
3.88

$$$$

Batch request: inhibition per item, same order as input.
1. NS(=O)(=O)c1ccc(N/N=C2\C(=O)Nc3ccc4ncccc4c32)cc1
2. COc1ccc(-c2oc3ncnc(N)c3c2-c2ccc(NC(=O)Nc3cc(C(F)(F)F)ccc3F)cc2)cc1

1. 8.38
2. 9.81

* * *

Provide the recorded inhibition for the entries that follow.
molecular target: Fibroblast growth factor receptor 1 (Homo sapiens); settings: at 0.1 µM
Numbers only, in %.

>  <compoundSmiles>
COc1ccc(-c2cc3c(N)ncnc3o2)cc1

>  <studyTarget>
Fibroblast growth factor receptor 1 (Homo sapiens)

>  <unitString>
%

>  <assayResult>
-5.35

$$$$
>  <compoundSmiles>
CCn1c(-c2nonc2N)nc2cnc(Oc3cccc(NC(=O)c4ccc(N(C)C)cc4)c3)cc21

>  <studyTarget>
Fibroblast growth factor receptor 1 (Homo sapiens)

>  <unitString>
%

>  <assayResult>
3.11

$$$$
>  <compoundSmiles>
Nc1nc(-c2cccc(Cl)c2)c(-c2ccc3ncccc3n2)s1

>  <studyTarget>
Fibroblast growth factor receptor 1 (Homo sapiens)

>  <unitString>
%

>  <assayResult>
3.71

$$$$
>  <compoundSmiles>
Nc1nc(-c2ccc(F)cc2)c(-c2ccc3ncccc3n2)s1

>  <studyTarget>
Fibroblast growth factor receptor 1 (Homo sapiens);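 note: values are reported as mean percent inhibition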

>  <unitString>
%

>  <assayResult>
4.21

$$$$

Batch request: inhibition per item, same order as input.
1. CC(C)(CO)CNC(=O)c1ccc2c(c1)/C(=N/Nc1ccc(S(N)(=O)=O)cc1)C(=O)N2
2. CC(=O)NCc1cccc(C#Cc2cncnc2Nc2ccc(OCc3cccc(F)c3)c(Cl)c2)c1
3. CCN1CCC(CC(=O)Nc2n[nH]c3nnc(-c4cccc(F)c4F)cc23)CC1
4. FC(F)(F)c1cccc(-c2nn3ncccc3c2-c2ccnc(Nc3ccc4c(c3)OCCO4)n2)c1
5. Fc1ccc(-c2nn3ccccc3c2-c2ccncc2)cc1

-4.71
-0.81
0.21
2.8
3.29

* * *

molecular target: 3-phosphoinositide-dependent protein kinase 1 (Homo sapiens); conditions: at 0.1 µM;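 note: values are mean inhibition of PDK1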
quantityKind: inhibition (%)
Numbers only, in %.

Below, each entry is followed by its recorded inhibition result.
>  <compoundSmiles>
COc1ccc(-c2nn3ncccc3c2-c2ccnc(Nc3ccc4c(c3)OCCO4)n2)cc1

>  <quantityKind>
inhibition

>  <assayResult>
-0.83

$$$$
>  <compoundSmiles>
c1ccc(COc2ccc(Nc3ncnc4ccc(-c5ccco5)cc34)cc2)cc1

>  <quantityKind>
inhibition

>  <assayResult>
0.07

$$$$
>  <compoundSmiles>
Nc1nc(-c2cccc(Cl)c2)c(-c2ccc3ncccc3n2)s1

>  <quantityKind>
inhibition

>  <assayResult>
0.49

$$$$

Batch request: inhibition per item, same order as input.
1. COc1cc(Nc2nccc(Nc3ccc4c(C)n[nH]c4c3)n2)cc(OC)c1OC
2. CCn1cc(-c2ccnc3[nH]ccc23)c(-c2cccc(NC(=O)Nc3ccc(OCc4ccccc4)cc3)c2)n1
3. CS(=O)(=O)CCNCc1coc(-c2ccc3ncnc(Nc4ccc(OCc5ccccc5)cc4)c3c2)c1
4. O=C(O[C@H]1CN[C@H](C#Cc2cc3ncnc(Nc4ccc(Cc5ccccc5)cc4)c3s2)C1)N1CCOCC1

2.76
-1.57
6.29
-1.22

Batch request: inhibition per item, same order as input.
1. CCCN1CCC(c2ccc(Nc3nc(Nc4cc(F)ccc4C(N)=O)c4cc[nH]c4n3)c(OC)c2)CC1
2. CNC(=O)c1cc(-c2ccc(F)cc2)cc(-c2ccc(S(=O)(=O)N3CCCC3)cc2)c1N
3. CN1CCC(n2cnc(-c3ccc(F)cc3)c2-c2ccnc(N)n2)CC1
4. COC(=O)Nc1nc2ccc(S(=O)(=O)c3ccc(NC(=O)Nc4cc(C(F)(F)F)ccc4F)cc3)cc2[nH]1
5. CCNC(=O)O[C@H]1CN[C@H](C#Cc2cc3ncnc(Nc4ccc(OCc5cccc(F)c5)c(Cl)c4)c3s2)C1
6. Fc1ccc(-c2nn3ncccc3c2-c2ccnc(Nc3ccc4c(c3)OCCO4)n2)cc1
7. COc1cccc(-n2ncc3c(N/N=C/c4ccc(F)cc4)ncnc32)c1
8. CCc1nn2ncccc2c1-c1ccnc(NC2CC2)n1

0.96
1.46
3.73
1.73
4.86
1.87
0.01
1.73

Batch request: inhibition per item, same order as input.
1. Nc1ncc(-c2cccc(S(N)(=O)=O)c2)c2scc(-c3ccc(F)c(Cl)c3)c12
2. N#Cc1c(NC(=O)c2ccc(F)cc2)sc2c1CCCC2

1.01
0.85

Output inhibition of `Nc1nc(-c2ccc(F)cc2)c(-c2ccc3ncccc3n2)s1`
3.99
